Target: T1, RSV G protein of strain A (Ga protein) (respiratory syncytial virus, strain A …, UniProt P03423 66-298)
T1 construct: also called RSV-Ga; RSV-GA2 protein
T1 sequence (looked up): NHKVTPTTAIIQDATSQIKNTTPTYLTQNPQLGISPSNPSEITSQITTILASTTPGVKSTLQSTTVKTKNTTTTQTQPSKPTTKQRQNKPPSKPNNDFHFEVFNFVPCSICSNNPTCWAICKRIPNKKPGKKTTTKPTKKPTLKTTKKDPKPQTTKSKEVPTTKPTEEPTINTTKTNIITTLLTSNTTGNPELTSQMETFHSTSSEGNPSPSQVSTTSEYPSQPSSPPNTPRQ
Test: Biacore, antibody on chip, recombinant Ga in flow
measurement-label: pKd
Give bare numbers, as −log10 of the molar value.

Below, each entry is followed by its recorded pKd result.
human monoclonal antibody 3G12 (antibody, V domains shown) VH: QLQLQESGPGLVKPSETLSLTCTVSGGSISSSNYYWGWIRQPPGKGLEWIASIHDSGSIYYNPSLRSRVTISVDTSKNQFSLKLSSVTAADTAVYYCARHLVWFGELRNNWFDPWGQGTLVTVAS VL: EIVMTQSPATLSVSPGERATLSCRASQSVNSNLAWYQHKPGQAPRLLIYGASTRATGIPARFSGSGSGTDFTLTISSLQSEDFAVYYCQQYNNWPLFGPGTKVDLK    9.24
human monoclonal antibody 3D3 (antibody, V domains shown) VH: EEQLVESGGGLVQPGRSLRLSCVGSGLRFEEHAMHWVRQAPGRGLEWVSGISWNSGSVGYADSVKGRFTTSRDNAKDILFLEMNTLRSEDTALYFCAIMVATTKNDFHYYKDVWGKGTTVTVSS VL: QIVLTQSPATLSLSPGERATLSCKASQSVSNHLAWYQQKPGQAPRLLIYETSNRATGIPPRFSGSGSGTDFTLTISSLEPEDFAVYYCQQRNNWYTFGQGTKLEIK    11.96
human monoclonal antibody 5D8 (antibody, V domains shown) VH: QAQLVESGGGVVQPGRSLRLSCAASGFTFSYSGMHWVRQAPGRGLEWLAVISYDGNKMYYADSVKGRFTISRDNSKMTLYLQMNSLRREDTAVYYCAKDGLDYGGDLVYYGMDVWGNGTTVTVSS VL: SYELTQPPSVSVSPGQTGRITCTGSEASGDALASRYAYWYQHKSGQAPVVLIYKDTERPSGISERFSGSSSGTTVTLIISGVLAEDEADYYCKTSVRNGTSWVFGTGTMLTVL    8.36

# ---- query binder ----
Reported pKd, binder human monoclonal antibody 1G8 (antibody, V domains shown) VH: QLQLQESGPGLVKPSETLSLTCTVSGDSITSGQYYWAWIRQAPGKGLEWIGSIHYSGSTYQNPSLKSRLTISVDTSRDQISMKLSSVTVAESAVYYCAKQQLSLSPVENWFDPWGQGTLVTVSS VL: EIVVTQSPVTLSVSPGESAALSCRASRSVGSRLAWYQQKPGQPPRLLIFAASTRATGIPARFSGSGSGTDFTLIISGLQSEDYAVYYCQQYKEWPLFTFGPGTTVDSK : ____
10.62
